TARGET_ENTITY: human LPAR1 (Homo sapiens, UniProt Q92633)
Construct: host or cells: CHO-K1
Sequence (Q92633 whole entry): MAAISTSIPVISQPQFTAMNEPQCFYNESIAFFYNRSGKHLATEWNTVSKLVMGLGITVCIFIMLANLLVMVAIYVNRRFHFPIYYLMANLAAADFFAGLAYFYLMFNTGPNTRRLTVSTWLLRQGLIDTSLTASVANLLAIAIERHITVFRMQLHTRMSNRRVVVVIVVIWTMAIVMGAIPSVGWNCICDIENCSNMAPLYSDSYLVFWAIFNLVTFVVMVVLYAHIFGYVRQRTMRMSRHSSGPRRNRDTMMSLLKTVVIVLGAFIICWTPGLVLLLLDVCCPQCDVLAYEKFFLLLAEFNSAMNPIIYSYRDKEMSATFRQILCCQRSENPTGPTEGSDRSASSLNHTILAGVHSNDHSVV
TEST_DESCRIPTION: LPAR1 intracellular calcium mobilization assay (antagonist mode)
Format: cell-based
EXPERIMENTAL_CONDITIONS: CHO-K1 EDG2 cells expressing human LPAR1; 60 min pre-incubation with compound (0.5 nM to 10 μM), then LPA 18:2 challenge; FLIPR Tetra calcium signal
ENDPOINT_LABEL: EC50 (nM)
Lab book: enter the figure in nM, no units written.

Use these answered entries as a reference point.
[
  {
    "COMPOUND": "C[C@@H](OC(=O)Nc1c(-c2ccc3c(n2)OCC(=O)N3)cnn1C)c1cc(F)cnc1Cl",
    "EC50 / nM": 25.7
  },
  {
    "COMPOUND": "C[C@@H](OC(=O)Nc1c(-c2ncc(C(=O)NC34CC(C#N)(C3)C4)cn2)cnn1C)c1cc(F)cnc1F",
    "EC50 / nM": 158
  },
  {
    "COMPOUND": "C[C@@H](OC(=O)Nc1c(-c2ncc(NC(=O)C3(C#N)CC3)cc2F)cnn1C)c1cc(F)cnc1F",
    "EC50 / nM": 19.7
  },
  {
    "COMPOUND": "C[C@@H](OC(=O)Nc1c(-c2ncc(NC(=O)C34CC(F)(C3)C4)cc2F)cnn1C)c1cc(F)cnc1F",
    "EC50 / nM": 15.8
  },
  {
    "COMPOUND": "C[C@@H](OC(=O)Nc1c(-c2ncc(NC(=O)c3ccc(C(F)(F)F)nc3)cn2)cnn1C)c1cc(F)cnc1F",
    "EC50 / nM": 28
  },
  {
    "COMPOUND": "C[C@@H](OC(=O)Nc1c(-c2ncc(C(O)C(F)(F)F)cn2)cnn1C)c1cc(F)cnc1F (some centres unmarked)",
    "EC50 / nM": 745
  },
  {
    "COMPOUND": "C[C@@H](OC(=O)Nc1c(-c2ccc(NC(=O)C3(C#N)CC3)cn2)cnn1C)c1cc(F)cnc1F",
    "EC50 / nM": 763
  },
  {
    "COMPOUND": "C[C@@H](OC(=O)Nc1c(-c2ncc(NC(=O)C3(C(F)F)CC(F)(F)C3)cn2)cnn1C)c1cc(F)cnc1F",
    "EC50 / nM": 7.9
  },
  {
    "COMPOUND": "C[C@@H](OC(=O)Nc1c(-c2ncc(O)cn2)cnn1C)c1cccnc1Cl",
    "EC50 / nM": 120
  },
  {
    "COMPOUND": "C[C@@H](OC(=O)Nc1c(-c2ncc(O)cn2)cnn1C)c1cc(F)cnc1F",
    "EC50 / nM": 301
  }
]

EC50 recorded for this compound, C[C@@H](OC(=O)Nc1c(-c2ncc(NC(=O)C3(C)CC(F)(F)C3)cn2)cnn1C)c1cc(F)cnc1F , is 14

Please fill in: EC50 reported for C[C@@H](OC(=O)Nc1c(-c2ncc(NS(C)(=O)=O)cn2)cnn1C)c1ccccc1F = 36.4

Lookup result for CCS(=O)(=O)Oc1cnc(-c2cnn(C)c2NC(=O)O[C@H](C)c2cc(F)cnc2Cl)nc1 ; measured EC50: 51.5

Quick note, EC50 for C[C@@H](OC(=O)Nc1c(-c2ncc(NC(=O)[C@]3(C)C[C@@H](C#N)C3)cn2)cnn1C)c1cc(F)cnc1F landed at 52.7
